- test_system: Lysine-specific demethylase 2A (Homo sapiens)
- Sequence (Q9Y2K7 whole entry): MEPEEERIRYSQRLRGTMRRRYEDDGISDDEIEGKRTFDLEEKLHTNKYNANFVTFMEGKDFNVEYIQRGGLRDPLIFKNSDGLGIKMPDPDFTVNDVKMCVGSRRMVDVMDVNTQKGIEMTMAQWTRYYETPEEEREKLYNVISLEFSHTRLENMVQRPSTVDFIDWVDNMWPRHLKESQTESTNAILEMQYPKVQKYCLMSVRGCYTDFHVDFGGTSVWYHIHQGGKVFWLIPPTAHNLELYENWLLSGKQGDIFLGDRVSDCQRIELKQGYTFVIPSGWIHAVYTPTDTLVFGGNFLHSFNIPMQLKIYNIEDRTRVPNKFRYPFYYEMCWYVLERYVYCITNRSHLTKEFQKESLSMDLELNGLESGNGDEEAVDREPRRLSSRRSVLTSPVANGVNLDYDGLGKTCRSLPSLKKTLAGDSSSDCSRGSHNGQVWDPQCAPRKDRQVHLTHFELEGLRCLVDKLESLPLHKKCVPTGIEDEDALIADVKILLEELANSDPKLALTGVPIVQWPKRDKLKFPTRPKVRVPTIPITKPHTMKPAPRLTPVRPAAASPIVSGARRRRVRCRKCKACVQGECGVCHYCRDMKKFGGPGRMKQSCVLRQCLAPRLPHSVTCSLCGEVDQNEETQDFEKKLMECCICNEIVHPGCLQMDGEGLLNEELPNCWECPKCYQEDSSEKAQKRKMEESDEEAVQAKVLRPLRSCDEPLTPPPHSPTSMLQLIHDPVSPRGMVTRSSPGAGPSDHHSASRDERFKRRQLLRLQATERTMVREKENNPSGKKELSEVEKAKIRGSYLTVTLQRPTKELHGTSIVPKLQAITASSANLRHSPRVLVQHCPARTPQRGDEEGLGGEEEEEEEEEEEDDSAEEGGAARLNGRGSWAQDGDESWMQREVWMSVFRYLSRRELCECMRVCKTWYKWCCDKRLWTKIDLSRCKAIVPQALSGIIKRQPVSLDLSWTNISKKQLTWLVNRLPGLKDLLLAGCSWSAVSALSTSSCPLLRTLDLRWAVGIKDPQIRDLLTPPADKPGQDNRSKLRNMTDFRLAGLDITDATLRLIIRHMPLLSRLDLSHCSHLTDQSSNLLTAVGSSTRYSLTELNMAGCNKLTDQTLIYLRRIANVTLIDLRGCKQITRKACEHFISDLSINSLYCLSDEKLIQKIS
observation_type: pIC50
pIC50 is defined as minus the log10 of a concentration measured in mol/L.

Please supply the value of reported pIC50 for the item `Cc1cc(Cl)ccc1COc1ccnn1-c1cc(C(=O)O)ccn1`
6.09

###

- protocol: AUC in CD-1 mouse at 10 mg/kg, po
- Format: ADME, organism-based
- assay_setup: in vivo
observation_type: AUC (ng·h/mL)
// note: answer is a bare numeric in ng·h/mL

Please supply the value of reported AUC for the item `Cc1cc(Cl)ccc1COc1ccnn1-c1cc(C(=O)O)ccn1`
44000

###

- test_system: Lysine-specific demethylase 4C (Homo sapiens, UniProt Q9H3R0)
- Sequence (Q9H3R0 whole entry): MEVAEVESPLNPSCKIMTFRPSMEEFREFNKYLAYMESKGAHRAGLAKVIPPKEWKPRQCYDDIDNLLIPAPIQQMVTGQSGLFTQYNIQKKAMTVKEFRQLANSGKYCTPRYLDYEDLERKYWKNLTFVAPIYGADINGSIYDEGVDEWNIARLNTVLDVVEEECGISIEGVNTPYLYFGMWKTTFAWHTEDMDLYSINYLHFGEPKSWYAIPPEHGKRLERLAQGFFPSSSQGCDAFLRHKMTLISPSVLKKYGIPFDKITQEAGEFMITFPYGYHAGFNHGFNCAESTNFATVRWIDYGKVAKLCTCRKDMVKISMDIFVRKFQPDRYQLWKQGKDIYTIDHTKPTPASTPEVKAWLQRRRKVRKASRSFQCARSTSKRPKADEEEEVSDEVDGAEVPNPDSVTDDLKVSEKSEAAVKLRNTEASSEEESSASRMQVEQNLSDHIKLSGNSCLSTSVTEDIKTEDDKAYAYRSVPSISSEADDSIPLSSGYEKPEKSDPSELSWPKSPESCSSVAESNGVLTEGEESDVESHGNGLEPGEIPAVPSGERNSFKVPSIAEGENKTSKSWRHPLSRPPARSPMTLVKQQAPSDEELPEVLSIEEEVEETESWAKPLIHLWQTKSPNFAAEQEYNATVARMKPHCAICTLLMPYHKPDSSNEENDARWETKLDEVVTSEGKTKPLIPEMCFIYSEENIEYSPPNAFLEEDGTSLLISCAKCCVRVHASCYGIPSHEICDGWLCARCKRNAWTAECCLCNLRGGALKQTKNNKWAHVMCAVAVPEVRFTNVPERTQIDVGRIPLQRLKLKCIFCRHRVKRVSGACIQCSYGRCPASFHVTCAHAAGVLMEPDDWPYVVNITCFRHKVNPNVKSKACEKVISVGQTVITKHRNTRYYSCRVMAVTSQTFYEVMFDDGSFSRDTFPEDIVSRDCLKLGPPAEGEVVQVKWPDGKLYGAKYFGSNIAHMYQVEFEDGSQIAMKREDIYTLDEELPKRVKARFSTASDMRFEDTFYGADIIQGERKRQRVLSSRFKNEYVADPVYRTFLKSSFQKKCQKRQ
pIC50: −log10 of the molar value.
Label Not fulfilled if pIC50 falls below 7; label Fulfilled in every other case.

Given the entry `N#Cc1ccc(COc2ccnn2-c2cc(C(=O)O)ccn2)cc1` , answer whether its pIC50 meets or surpasses 7.
Fulfilled

Given the entry `O=C(O)c1ccnc(-n2nccc2OCc2ccc(Cl)cc2)c1` , answer whether its pIC50 meets or surpasses 7.
Fulfilled

Given the entry `Cc1ccc(-c2ccnn2-c2cc(C(=O)O)ccn2)cc1O` , answer whether its pIC50 meets or surpasses 7.
Not fulfilled

Given the entry `Cc1ccc(COc2ccnn2-c2cc(C(=O)O)ccn2)cc1` , answer whether its pIC50 meets or surpasses 7.
Not fulfilled

Given the entry `O=C(O)c1ccnc(-n2nccc2-c2ccc(O)cc2)c1` , answer whether its pIC50 meets or surpasses 7.
Not fulfilled

Given the entry `CN(C)CCc1cnn(-c2cc(C(=O)O)ccn2)c1OCc1ccc(F)cc1` , answer whether its pIC50 meets or surpasses 7.
Fulfilled

Given the entry `O=C(O)c1ccnc(-n2ncc(CCO)c2OCc2ccc(F)cc2)c1` , answer whether its pIC50 meets or surpasses 7.
Not fulfilled

Given the entry `O=C(O)c1ccnc(-n2nccc2-c2ccccc2)c1` , answer whether its pIC50 meets or surpasses 7.
Not fulfilled

Given the entry `CS(=O)(=O)c1ccc(-c2ccnn2-c2cc(C(=O)O)ccn2)cc1` , answer whether its pIC50 meets or surpasses 7.
Not fulfilled

Given the entry `O=C(O)c1ccnc(-n2nccc2OCc2ccccc2)c1` , answer whether its pIC50 meets or surpasses 7.
Fulfilled

Given the entry `COc1cc(-c2ccnn2-c2cc(C(=O)O)ccn2)ccc1C` , answer whether its pIC50 meets or surpasses 7.
Not fulfilled

###

As an illustration, consider measured IC50 for molecules on Lysine-specific demethylase 5B (Homo sapiens, UniProt Q9UGL1).
Sequence (Q9UGL1 whole entry): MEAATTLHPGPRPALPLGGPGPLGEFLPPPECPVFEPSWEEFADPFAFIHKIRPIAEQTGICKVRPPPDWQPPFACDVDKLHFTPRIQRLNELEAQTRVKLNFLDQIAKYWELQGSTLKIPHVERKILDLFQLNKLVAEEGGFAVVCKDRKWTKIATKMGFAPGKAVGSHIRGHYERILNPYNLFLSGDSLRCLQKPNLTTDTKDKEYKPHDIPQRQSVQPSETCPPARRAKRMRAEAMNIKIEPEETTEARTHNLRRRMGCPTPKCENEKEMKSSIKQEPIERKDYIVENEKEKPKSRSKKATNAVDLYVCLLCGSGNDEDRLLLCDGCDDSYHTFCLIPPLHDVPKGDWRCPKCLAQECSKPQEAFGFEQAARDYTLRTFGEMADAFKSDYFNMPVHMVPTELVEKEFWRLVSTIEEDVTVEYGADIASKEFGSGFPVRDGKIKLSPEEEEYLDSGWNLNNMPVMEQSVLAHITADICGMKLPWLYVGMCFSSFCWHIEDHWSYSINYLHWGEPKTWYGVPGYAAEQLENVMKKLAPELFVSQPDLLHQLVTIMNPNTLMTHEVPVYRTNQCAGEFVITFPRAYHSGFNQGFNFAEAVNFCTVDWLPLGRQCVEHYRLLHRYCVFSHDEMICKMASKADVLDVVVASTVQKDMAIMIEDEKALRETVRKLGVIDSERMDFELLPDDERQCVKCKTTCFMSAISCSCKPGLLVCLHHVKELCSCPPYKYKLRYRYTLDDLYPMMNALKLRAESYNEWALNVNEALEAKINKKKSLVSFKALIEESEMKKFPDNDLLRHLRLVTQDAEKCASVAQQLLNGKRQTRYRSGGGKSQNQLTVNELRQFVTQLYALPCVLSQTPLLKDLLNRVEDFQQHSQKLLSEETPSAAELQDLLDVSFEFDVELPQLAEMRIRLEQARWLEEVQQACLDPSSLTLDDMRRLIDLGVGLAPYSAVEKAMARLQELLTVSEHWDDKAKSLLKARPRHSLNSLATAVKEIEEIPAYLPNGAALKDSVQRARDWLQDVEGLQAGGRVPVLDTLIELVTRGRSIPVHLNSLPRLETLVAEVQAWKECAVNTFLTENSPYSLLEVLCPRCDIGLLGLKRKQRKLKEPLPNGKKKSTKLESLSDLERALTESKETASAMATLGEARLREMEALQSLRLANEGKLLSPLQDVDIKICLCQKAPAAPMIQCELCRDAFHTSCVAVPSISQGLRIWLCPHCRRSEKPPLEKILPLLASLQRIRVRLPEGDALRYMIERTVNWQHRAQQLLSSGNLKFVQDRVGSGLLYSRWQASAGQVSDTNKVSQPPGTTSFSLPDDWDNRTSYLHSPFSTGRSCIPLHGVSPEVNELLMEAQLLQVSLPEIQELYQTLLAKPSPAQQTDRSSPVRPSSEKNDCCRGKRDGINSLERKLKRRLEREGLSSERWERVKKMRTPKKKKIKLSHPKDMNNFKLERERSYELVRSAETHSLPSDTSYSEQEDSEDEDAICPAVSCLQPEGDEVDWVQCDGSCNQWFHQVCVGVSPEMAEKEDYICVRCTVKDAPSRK
// note: answer is a bare numeric in nM

Please supply the value of reported IC50 for the item `O=C(O)c1ccnc(-n2ncc(CCO)c2OCc2ccc(F)cc2)c1`
68

Please supply the value of reported IC50 for the item `COc1cc(-c2ccnn2-c2cc(C(=O)O)ccn2)ccc1Cl`
230

Please supply the value of reported IC50 for the item `O=C(O)c1ccnc(-n2nccc2-c2ccccc2)c1`
4400

Please supply the value of reported IC50 for the item `Cc1cc(Cl)ccc1COc1ccnn1-c1cc(C(=O)O)ccn1`
2

Please supply the value of reported IC50 for the item `Cc1cnn(-c2cc(C(=O)O)ccn2)c1OCc1ccc(F)cc1`
54

Please supply the value of reported IC50 for the item `O=C(O)c1ccnc(-n2nccc2-c2ccc(O)cc2)c1`
320

Please supply the value of reported IC50 for the item `O=C(O)c1ccnc(-n2nccc2-c2ccc(F)c(F)c2)c1`
370

Please supply the value of reported IC50 for the item `CN(C)CCc1cnn(-c2cc(C(=O)O)ccn2)c1OCc1ccc(F)cc1`
1

Please supply the value of reported IC50 for the item `CCOc1cc(Cl)ccc1COc1ccnn1-c1cc(C(=O)O)ccn1`
4

###

- protocol: Protein binding in mouse plasma
- Format: ADME, cell-free
- assay_setup: read-out: PPB (converted)
observation_type: fraction unbound

Please supply the value of reported fraction unbound for the item `Cc1cc(Cl)ccc1COc1ccnn1-c1cc(C(=O)O)ccn1`
0.009

###

observation_type: pIC50
pIC50 is defined as minus the log10 of a concentration measured in mol/L.

Report measured pIC50 on Lysine-specific demethylase 4B (Homo sapiens, UniProt O94953); entry: `Cc1cc(Cl)ccc1COc1ccnn1-c1cc(C(=O)O)ccn1`
Sequence (O94953 whole entry): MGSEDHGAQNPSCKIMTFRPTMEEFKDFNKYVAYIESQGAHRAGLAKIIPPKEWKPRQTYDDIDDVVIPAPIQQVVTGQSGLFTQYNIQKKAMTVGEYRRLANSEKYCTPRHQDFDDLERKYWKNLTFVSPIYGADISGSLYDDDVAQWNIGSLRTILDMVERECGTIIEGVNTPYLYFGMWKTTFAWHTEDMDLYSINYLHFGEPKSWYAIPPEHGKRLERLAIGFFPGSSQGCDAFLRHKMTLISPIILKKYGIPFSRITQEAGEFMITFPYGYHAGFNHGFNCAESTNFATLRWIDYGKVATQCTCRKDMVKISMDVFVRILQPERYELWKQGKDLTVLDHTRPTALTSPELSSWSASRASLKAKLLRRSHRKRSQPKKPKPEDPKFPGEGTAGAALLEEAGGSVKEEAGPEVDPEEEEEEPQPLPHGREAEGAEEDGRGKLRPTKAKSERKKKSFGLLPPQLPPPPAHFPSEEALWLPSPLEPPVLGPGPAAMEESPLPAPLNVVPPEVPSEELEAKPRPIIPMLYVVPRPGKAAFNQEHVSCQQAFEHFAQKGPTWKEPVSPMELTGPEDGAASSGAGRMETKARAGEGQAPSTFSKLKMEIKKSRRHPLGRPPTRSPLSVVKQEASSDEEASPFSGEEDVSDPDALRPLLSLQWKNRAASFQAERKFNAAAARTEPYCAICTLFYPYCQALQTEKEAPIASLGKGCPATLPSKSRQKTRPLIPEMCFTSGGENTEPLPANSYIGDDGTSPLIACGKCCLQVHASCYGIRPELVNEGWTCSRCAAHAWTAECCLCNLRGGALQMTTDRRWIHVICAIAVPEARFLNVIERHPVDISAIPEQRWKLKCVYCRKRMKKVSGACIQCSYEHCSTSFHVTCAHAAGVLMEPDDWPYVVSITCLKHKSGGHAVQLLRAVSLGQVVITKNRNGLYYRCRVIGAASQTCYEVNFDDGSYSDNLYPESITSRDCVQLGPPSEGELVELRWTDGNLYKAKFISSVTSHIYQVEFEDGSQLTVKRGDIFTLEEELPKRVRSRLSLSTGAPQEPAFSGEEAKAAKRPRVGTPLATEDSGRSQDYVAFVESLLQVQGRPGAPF
6.77

###

- test_system: Lysine-specific demethylase 5A/5B (Homo sapiens, UniProt P29375+Q9UGL1)
- protocol: Inhibition of KDM5A/KDM5B in human ZR-75-1 cells assessed as increase in H3K4me3 level after 72 hrs by fluorometric immunoassay
- Type: cell-based
observation_type: log10 EC50 (log10 of the value in nM)
Reminder: these figures are log10 of reported EC50, in nM before transformation.

Please supply the value of reported log10 EC50 for the item `N#Cc1ccc(COc2ccnn2-c2cc(C(=O)O)ccn2)cc1`
2.97

Please supply the value of reported log10 EC50 for the item `Cc1cc(Cl)ccc1COc1ccnn1-c1cc(C(=O)O)ccn1`
1.95

Please supply the value of reported log10 EC50 for the item `O=C(O)c1ccnc(-n2nccc2OCc2ccc(Cl)cc2)c1`
2.62

Please supply the value of reported log10 EC50 for the item `O=C(O)c1ccnc(-n2nccc2OCc2ccc(F)cc2)c1`
2.92

Please supply the value of reported log10 EC50 for the item `Cc1ccc(COc2ccnn2-c2cc(C(=O)O)ccn2)cc1`
3.00

Please supply the value of reported log10 EC50 for the item `CCOc1cc(Cl)ccc1COc1ccnn1-c1cc(C(=O)O)ccn1`
3.00

Please supply the value of reported log10 EC50 for the item `O=C(O)c1ccnc(-n2nccc2OCc2ccc(Cl)cc2OCc2ccccc2)c1`
2.90

Please supply the value of reported log10 EC50 for the item `O=C(O)c1ccnc(-n2nccc2OCc2cccc(F)c2)c1`
4.08
